Reported values of IC50 for individual entries
# System: Jurkat
# ASSAY_COMMENT: MTS proliferation assay
# Type: cell-based, human
# APPLIED_CONDITIONS: 72 h read-out

Known results for compounds:
# SMILES_INPUT, OBSERVED_MEASUREMENT
measured = [
    ("COc1ccc(Nc2cncc(-c3cccc(NC(=O)c4ccccc4)c3)c2)cc1OC", "100 to 1000 nM"),
    ("COc1ccc(Nc2cncc(-c3cccc(NC(=O)c4cccc(OC)c4)c3)c2)cc1", "100 to 1000 nM"),
    ("COc1ccc(Nc2cncc(-c3cccc(NC(C)=O)c3)c2)cc1", "100 to 1000 nM"),
    ("COc1ccc(Nc2cncc(-c3cccc(NC(=O)c4cccnc4Cl)c3)c2)cc1", "10 to 100 nM"),
]

Query compound follows.
Exercise: Request the reported IC50 associated with COc1ccc(Nc2cncc(-c3cccc(NS(=O)(=O)CCCCl)c3)c2)cc1
Key: 10 to 100 nM

---

# Tested on: HeLa
# ASSAY_COMMENT: Mitochondrial membrane potential (JC-1)
# Format: cell-based, human
# APPLIED_CONDITIONS: Homo sapiens, 48 h read-out
MEASUREMENT_LABEL: EC50

Known results for compounds:
# SMILES_INPUT, OBSERVED_MEASUREMENT
records = [
    ("COc1ccc(Nc2cncc(-c3cccc(Nc4ccccn4)c3)c2)cc1", "100 to 1000 nM"),
    ("COc1ccc(Nc2cncc(-c3cccc(NS(C)(=O)=O)c3)c2)cc1", "100 to 1000 nM"),
]

Query compound follows.
Exercise: Look up EC50 with HeLa for this compound: COc1ccc(Nc2cncc(-c3cccc(NC(=O)c4ccccc4)c3)c2)cc1
Key: 10 to 100 nM

---

Reported values of pIC50 for individual entries
# Tested on: MRC5
# ASSAY_COMMENT: MTS proliferation assay
# Format: cell-based
# APPLIED_CONDITIONS: Homo sapiens; MRC5, 72 h read-out
pIC50: −log10 of the molar value.

# SMILES_INPUT, TESTED_ON, MEASUREMENT_LABEL, OBSERVED_MEASUREMENT
measured = [
    ("COc1ccc(Nc2cncc(-c3cccc(NS(C)(=O)=O)c3)c2)cc1", "MRC5", "pIC50", "6.00 to 7.00"),
]

Exercise: Look up pIC50 with MRC5 for this compound: COc1ccc(Nc2cncc(-c3cccc(NC(=O)c4ccccc4)c3)c2)cc1
Key: 7.00 to 8.00

Exercise: Look up pIC50 with MRC5 for this compound: COc1ccc(Nc2cncc(-c3cccc(Nc4ccccn4)c3)c2)cc1
Key: 6.00 to 7.00

---

# Test system: Jurkat
# ASSAY_COMMENT: Hoechst 33342 nuclear staining
# Type: cell-based, human
# APPLIED_CONDITIONS: 48 h read-out
MEASUREMENT_LABEL: EC50

Known results for molecules:
# SMILES_INPUT, TESTED_ON, OBSERVED_MEASUREMENT
records = [
    ("CCS(=O)(=O)Nc1cccc(-c2cncc(Nc3ccc(OC)cc3)c2)c1", "Jurkat", "10 to 100 nM"),
    ("COc1ccc(Nc2cncc(-c3cccc(NC(=O)c4cccs4)c3)c2)cc1", "Jurkat", "10 to 100 nM"),
    ("O=C(Nc1cccc(-c2cncc(Nc3ccc(OCc4ccccc4)cc3)c2)c1)c1ccccc1", "Jurkat", "> 1000 nM"),
]

Exercise: Request the reported EC50 associated with COc1ccc(Nc2cncc(-c3cccc(NS(=O)(=O)CCCCl)c3)c2)cc1
Key: 10 to 100 nM

Exercise: Request the reported EC50 associated with COc1ccc(Nc2cncc(-c3cccc(NC(=O)c4ccccc4)c3)c2)cc1OC
Key: 100 to 1000 nM
